target: UniProt Q01726; assay: Agonist activity at human melanocortin 1 receptor expressed in HEK293 cells assessed as cAMP accumulation at 10 uM realtive to MT2; assay type: functional, cell-based
Sequence (Q01726 whole entry, looked up): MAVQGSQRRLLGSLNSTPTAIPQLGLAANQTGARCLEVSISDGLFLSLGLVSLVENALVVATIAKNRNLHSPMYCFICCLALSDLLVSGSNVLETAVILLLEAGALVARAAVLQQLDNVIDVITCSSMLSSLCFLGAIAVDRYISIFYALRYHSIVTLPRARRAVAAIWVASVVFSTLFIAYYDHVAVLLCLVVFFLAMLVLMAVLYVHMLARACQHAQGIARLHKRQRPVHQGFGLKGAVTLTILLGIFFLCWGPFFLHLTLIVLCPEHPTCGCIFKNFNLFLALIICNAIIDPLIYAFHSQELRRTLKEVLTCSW
# Activity annotations
QUANTITY_MEASURED: Activity (%)

INSERT INTO measurements (smiles_entry, recorded_number) VALUES
  ('N=C(N)NCCC[C@@H]1NC(=O)[C@H](Cc2ccc3ccccc3c2)NC(=O)[C@H](Cc2cnc[nH]2)NC(=O)c2cc([N+](=O)[O-])ccc2SC[C@@H](C(N)=O)NC(=O)[C@H](Cc2c[nH]c3ccccc23)NC1=O', 0),
  ('N=C(N)NCCC[C@@H]1NC(=O)[C@H](CCCNC(N)=O)NC(=O)[C@H](Cc2cnc[nH]2)NC(=O)c2cc([N+](=O)[O-])ccc2SC[C@@H](C(N)=O)NC(=O)[C@H](Cc2c[nH]c3ccccc23)NC1=O', 0),
  ('N=C(N)NCCC[C@@H]1NC(=O)[C@@H](Cc2ccccc2)NC(=O)[C@H](Cc2cnc[nH]2)NC(=O)c2cc([N+](=O)[O-])ccc2SC[C@@H](C(N)=O)NC(=O)[C@H](Cc2ccccc2)NC1=O', 0);
